Target Desc: Glycogen synthase kinase-3 beta (Homo sapiens, UniProt P49841)
Sequence (P49841 whole entry): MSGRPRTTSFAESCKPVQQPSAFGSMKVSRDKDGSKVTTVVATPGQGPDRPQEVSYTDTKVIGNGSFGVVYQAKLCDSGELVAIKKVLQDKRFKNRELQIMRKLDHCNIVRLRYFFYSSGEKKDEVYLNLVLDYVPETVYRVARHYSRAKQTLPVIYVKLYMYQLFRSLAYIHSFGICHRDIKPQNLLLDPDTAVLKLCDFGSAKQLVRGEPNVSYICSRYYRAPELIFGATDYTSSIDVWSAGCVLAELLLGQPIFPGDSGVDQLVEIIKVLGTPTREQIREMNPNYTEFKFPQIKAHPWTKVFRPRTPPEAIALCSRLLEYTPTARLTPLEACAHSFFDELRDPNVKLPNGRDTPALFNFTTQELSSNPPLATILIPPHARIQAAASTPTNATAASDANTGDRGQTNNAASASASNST
Assay Info: concentration-response blocking of human GSK3B – biochemical, luminescence, cell-free homogeneous, retest, dose response (AID 434954)
pEC50: −log10 of the molar value.
In this section we review reported pEC50 values for a set of compounds.

These recorded examples may help you get a feel for the data.
1) CNc1nc(N)c([N+](=O)[O-])c(Nc2cccc(F)c2)n1 [SMR000436035] | 4.91
2) CCN(CC)Cc1c(O)ccc2c1O/C(=C\C=C\c1ccccc1)C2=O [MLS000779120] | < 3.52
3) CN(CC(=O)OCC(=O)Nc1ccccc1)S(=O)(=O)c1ccc(Cl)cc1 | < 3.52
4) COc1ccc(S(=O)(=O)NCC(c2ccc3c(c2)OCO3)N2CCOCC2)cc1 (configuration not stated) | < 3.52

Per the reported Glycogen synthase kinase-3 beta (Homo sapiens, UniProt P49841) data, CCOc1ccccc1CNC(=O)CCn1ccc2cc(S(=O)(=O)N3CCCCC3)ccc21 [SMR000629632] has pEC50 of < 3.52

Per the reported Glycogen synthase kinase-3 beta (Homo sapiens, UniProt P49841) data, CN(C)Cc1c(O)ccc2c1O/C(=C\C=C\c1ccccc1)C2=O has pEC50 of 4.50

Per the reported Glycogen synthase kinase-3 beta (Homo sapiens, UniProt P49841) data, CCSc1nnc(-c2cccs2)o1 has pEC50 of < 3.52
